Reported Binding amount (RU) is given for each of the following binders.
Target: T1, human FSTL1 (construct not stated) (human, UniProt Q12841 21-308)
T1 construct: also called human FSTL1 antigen; FSTL1 (R&D Systems, Inc. Cat#1694-FN-050)
T1 sequence: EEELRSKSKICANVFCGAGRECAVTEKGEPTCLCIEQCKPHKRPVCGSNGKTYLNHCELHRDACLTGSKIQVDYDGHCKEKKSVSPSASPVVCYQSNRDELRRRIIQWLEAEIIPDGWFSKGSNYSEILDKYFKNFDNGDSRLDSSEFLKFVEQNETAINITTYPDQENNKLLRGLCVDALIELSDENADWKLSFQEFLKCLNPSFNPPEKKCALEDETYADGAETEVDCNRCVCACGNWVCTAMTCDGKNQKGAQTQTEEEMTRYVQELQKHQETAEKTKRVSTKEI
Assay: SPR (Biacore T-200), captured antibody, human FSTL1 10 µg/ml
Respond numerically; units are RU and should not be typed.

Known results for binders:
anti-FSTL1 antibody clone #7-34 (chicken-mouse chimeric antibody) (antibody, mouse IgG1, kappa, V domains shown) VH: AVTLDESGGGLQTPGGGLSLVCKASGFTFSSVTMQWVRQAPGKGLEWVASICSGSSTYYGPAVKGRATISRDNGQNTVRLQLNNLRAEDTATYYCAKIVGRGRWSCTSAAYNIDAWGHGTEVIVSS VL: ASTQPSSVSANPGETVKITCSGGGNNYGWYQQKSPGSAPVTVIYYNNNRPSNIPSRFSGSTSGSTSTLTITGVQAEDEAVYYCGSYEGSTDSGIFGAGTTLTVLG    14.2
anti-FSTL1 antibody clone #5-43 (chicken-mouse chimeric antibody) (antibody, mouse IgG1, kappa, V domains shown) VH: AVTLDESGGGLQTPGGGLSLVCKGSGFTFSSFNMFWVRQAPGKGLEWVAGIGKDGGTGYGAAVDGRATISKDSGQSTLRLQLNNLRAEDTGTYYCAKAAGGCSYDWCGAYTGDIDTWGHGTEVIVSS VL: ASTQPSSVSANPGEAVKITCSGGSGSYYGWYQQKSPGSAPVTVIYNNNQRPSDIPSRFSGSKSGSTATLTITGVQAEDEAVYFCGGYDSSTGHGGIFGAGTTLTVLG    7

Proceeding to the next binder to report its Binding amount (RU).
Request: Any idea what its Binding amount (RU) is? The binder is anti-FSTL1 antibody clone #8-8 (chicken-mouse chimeric antibody) (antibody, mouse IgG1, kappa, V domains shown) VH: AVTLDESGGGLQTPGGALSLVCKGSGFTFSSFNMFWVRQAPGKGLEWVAGIGKDGVPKYGAAVDGRATISKDNGQSTMRLQLNNLRAEDTGTYYCAKAAGGCSYGWCGAYTGDIDTWGHGTEVIVSS VL: ASTQPSSVSANPGEAVKITCSGGSGSYYGWYQQKSPGSAPVTVIYNNNQRPSDIPSRFSGSKSGSTATLTITGVQVEDEAVYFCGGYDSSTGHGGIFGAGTTLTVLG
Response: 8
